experimentDescription: Half life in C57BL6 mouse at 1 mg/kg, iv
Type: ADME, organism-based
measurementConditions: in vivo
quantityName: half-life (min)
Please give a number only; it is taken to be in min.

So what's the measured half-life for this one? Cc1[nH]c2c(N3CCO[C@H](CO)C3)c(C#N)c(C(F)(F)F)nc2c1Cl
45

----------
experimentDescription: Lipophilicity, log D of compound by shake-flask method
Assay type: physicochemical
measurementConditions: octanol/water
quantityName: logD

So what's the measured logD for this one? Cc1cc2nc(C(F)(F)F)c(C#N)c(N3CCC(Nc4ccccn4)CC3)c2[nH]1
4.3

So what's the measured logD for this one? Cc1[nH]c2c(N3CCC(N)(C(N)=O)CC3)c(C#N)c(C(F)(F)F)nc2c1Cl
2.1

So what's the measured logD for this one? Cc1[nH]c2c(N3CCC(N)CC3)c(C#N)c(C(F)(F)F)nc2c1Cl
1

----------
I'd appreciate it if you could supply logD values for the items below.
experimentDescription: Lipophilicity, log D of compound by shake-flask method
Type: physicochemical
measurementConditions: octanol/water
Please state the value as a number alone, without comment.

So what's the measured logD for this one? Cc1[nH]c2c(N3CCC4(CCN(C)C4=O)CC3)c(C#N)c(C(F)(F)F)nc2c1Cl
3

So what's the measured logD for this one? Cc1[nH]c2c(N3CCC4(CCNC4=O)CC3)c(C#N)c(C(F)(F)F)nc2c1Cl
3.2

So what's the measured logD for this one? Cc1[nH]c2c(N3CCO[C@H](CO)C3)c(C#N)c(C(F)(F)F)nc2c1Cl
2.6

So what's the measured logD for this one? COc1ccc(NS(=O)(=O)c2cccc(C(F)(F)F)c2)c(C(=O)Nc2ccc(Cl)cc2)c1
4.2

So what's the measured logD for this one? N#Cc1c(C(F)(F)F)nc2cc[nH]c2c1N1CCC2(CCNC2=O)CC1
2.3

So what's the measured logD for this one? Cc1[nH]c2c(N3CCO[C@@H](CO)C3)c(C#N)c(C(F)(F)F)nc2c1Cl
2.4

So what's the measured logD for this one? Cc1cc2nc(C(F)(F)F)c(C#N)c(N3CCC4(CCNC4=O)CC3)c2[nH]1
2.6

So what's the measured logD for this one? Cc1[nH]c2c(N3CCC(O)CC3)c(C#N)c(C(F)(F)F)nc2c1Cl
3.3

So what's the measured logD for this one? O=C(Nc1ccc(Cl)cc1C(=O)N/N=C/c1cccc(F)c1)c1cccc(CSCC(O)CO)c1 (centres undefined)
3.9

----------
experimentDescription: Apparent permeability of the compound across apical to basolateral side in RRCK cells
Type: ADME, cell-based, Canis lupus familiaris, MDCKII-LE
measurementConditions: dog, MDCK
Mark T only when Papp A→B stays strictly below 10 ×10⁻⁶ cm/s. Values equal to the cut-off are F.

Does Cc1cc2nc(C(F)(F)F)c(C#N)c(N3CCC4(CCNC4=O)CC3)c2[nH]1 have Papp A→B strictly under 10 ×10⁻⁶ cm/s?
F

Does Cc1[nH]c2c(N3CCC4(CCN(C)C4=O)CC3)c(C#N)c(C(F)(F)F)nc2c1Cl have Papp A→B strictly under 10 ×10⁻⁶ cm/s?
F

Does Cc1[nH]c2c(N3CCC(N)CC3)c(C#N)c(C(F)(F)F)nc2c1Cl have Papp A→B strictly under 10 ×10⁻⁶ cm/s?
T

Does N#Cc1c(C(F)(F)F)nc2cc[nH]c2c1N1CCC2(CCNC2=O)CC1 have Papp A→B strictly under 10 ×10⁻⁶ cm/s?
F

Does COc1ccc(NS(=O)(=O)c2cccc(C(F)(F)F)c2)c(C(=O)Nc2ccc(Cl)cc2)c1 have Papp A→B strictly under 10 ×10⁻⁶ cm/s?
T

Does Cc1[nH]c2c(N3CCC(N)(C(N)=O)CC3)c(C#N)c(C(F)(F)F)nc2c1Cl have Papp A→B strictly under 10 ×10⁻⁶ cm/s?
T

Does Cc1[nH]c2c(N3CCC4(CCNC4=O)CC3)c(C#N)c(C(F)(F)F)nc2c1Cl have Papp A→B strictly under 10 ×10⁻⁶ cm/s?
F

Does Cc1cc2nc(C(F)(F)F)c(C#N)c(N3CCC(Nc4ccccn4)CC3)c2[nH]1 have Papp A→B strictly under 10 ×10⁻⁶ cm/s?
T

Does O=C(Nc1ccc(Cl)cc1C(=O)N/N=C/c1cccc(F)c1)c1cccc(CSCC(O)CO)c1 (configuration not stated) have Papp A→B strictly under 10 ×10⁻⁶ cm/s?
T
